# measured-on: 3% milk powder (negative control)
# test-name: phage ELISA, 3% milk powder coated (negative control), anti-M13(HRP)
Measured OD450 of individual entries
Give the quantity in OD450, number only.

Use the examples below as a reference point.
// OD450 value for V36 (VHH, Purified with C-terminal GGGGS-6×His) VHH: QLQLVESGGGSVQPGGSLRLSCEVSGRTFASYTMGWFRQAPGKEREFVVAISKGGYKYDSVSLEARFTISKDNTKNTVYLQMNSLKPEDTAVYYCAGTRAYGSSRLRLADTYEYWGQGTQVTVSS : 0.0623

// OD450 value for V18 (VHH) VHH: QLQLVESGGGSVQPGGSLRLSCEVSGRTFSSYTMGWFRQAPGKEREFVVAISKGGYKYNSVSLEARFTISKDNTKNTVYLQMNSLKPEDTAVYYCAGTRAYGSSRLRLADTYEYWGQGTQVTVSS : 0.0134

// OD450 value for V29 (VHH, Purified with C-terminal GGGGS-6×His) VHH: QLQLVESGGGSVQPGGSLRLSCEVSGRTFSSYTMGWFRQAPGKEREFVVAISKGGYKYDSVSLEARFTISKDNTKNTVYLQMNSLKPEDTAVYYCAGTRAYGSSRLRLANTYEYWGQGTQVTVSS : 0.0553

// OD450 value for V40 (VHH, Purified with C-terminal GGGGS-6×His) VHH: QLQLVESGGGSVQPGGSLRLSCEVSGRTFTSYTMGWFRQAPGKEREFVVAISKGGYKYNAVSLEARFTISKDNTKNTVYLQMNSLKPEDTAVYYCAGTRAYGSSRLRLAKTYEYWGQGTQVTVSS : 0.0362

// OD450 value for V21 (VHH, Purified with C-terminal GGGGS-6×His) VHH: QLQLVESGGGSVQPGGSLRLSCEVSGRTFTSYTMGWFRQAPGKEREFVVAISKGGYKYNTVSLEARFTISKDNTKNTVYLQMNSLKPEDTAVYYCAGTRAYGSSRLRLAETYEYWGQGTQVTVSS : 0.0186

// OD450 value for V6 (VHH) VHH: QLQLVESGGGSVQPGGSLRLSCEVSGRTFSSYTMGWFRQAPGKEREFVVAISKGGYKYDTVSLEARFTISKDNTKNTVYLQMNSLKPEDTAVYYCAGTRAYGSSRLKLADTYEYWGQGTQVTVSS : 0.0473

// OD450 value for V17 (VHH, Purified with C-terminal GGGGS-6×His) VHH: QLQLVESGGGSVQPGGSLRLSCEVSGRTFSSYTMGWFRQAPGKEREFVVAISKGGYKYDTVSLEARFTISKDNTKNTVYLQMNSLKPEDTAVYYCAATRAYGSSRLRLAKTYEYWGQGTQVTVSS : 0.0403

// OD450 value for V15 (VHH, Purified with C-terminal GGGGS-6×His; also called candidate antibody V15) VHH: QLQLVESGGGSVQPGGSLRLSCEVSGRTFASYTMGWFRQAPGKEREFVVAISKGGYKYDSVSLEARFTISKDNTKNTVYLQMNSLKPEDTAVYYCAGTRAYGSSRLRLAETYEYWGQGTQVTVSS : 0.0126

// OD450 value for V41 (VHH, Purified with C-terminal GGGGS-6×His) VHH: QLQLVESGGGSVQPGGSLRLSCEVSGRTFSSYTMGWFRQAPGKEREFVVAISKGGYKYDSVSLEARFTISKDNTKNTVYLQMNSLKPEDTAVYYCAGTRAYGSSRLRLAKTYEYWGQGTQVTVSS : 0.0359

// OD450 value for V25 (VHH) VHH: QLQLVESGGGSVQPGGSLRLSCEVSGRTFTSYTMGWFRRAPGKEREFVVAISKGGYKYDSVSLEARFTISKDNTKNTVYLQMNSLKPEDTAVYYCAGTRAYGSSRLKLAKTYEYWGQGTQVTVSS : 0.0354

Others:
// OD450 value for V30 (VHH, Purified with C-terminal GGGGS-6×His; also called candidate antibody V30) VHH: QLQLVESGGGSVQPGGSLRLSCEVSGRTFSSYTMGWFRQAPGKGREFVVAISKGGYKYDAVSLEARFTISKDNTKNTVYLQMNSLKPEDTAVYYCAATRAYGSSRLRLAKTYEYWGQGTQVTVSS : 0.0436

// OD450 value for V19 (VHH) VHH: QLQLVESGGGSVQPGGSLRLSCEVSGRTFSSYTMGWFRQAPGKEREFVVAISKGGYKYNSVSLEARFTISKDNTKNTVYLQMNSLKPEDTAVYYCAATRAYGSSRLKLANTYEYWGQGTQVTVSS : 0.0273

// OD450 value for V1 (VHH, also called candidate antibody V1; antibody V1) VHH: QLQLVESGGGSVQPGGSLRLSCEVSGRTFSSYTMGWFRQAPGKEREFVVAISKGGYKYDSVSLEARFTISKDNTKNTVYLQMNSLKPEDTAVYYCAATRAYGSSRLRLADTYEYWGQGTQVTVSS : 0.0377

// OD450 value for V13 (VHH, Purified with C-terminal GGGGS-6×His; also called candidate antibody V13) VHH: QLQLVESGGGSVQPGGSLRLSCEVSGRTFTSYTMGWFRQAPGKEREFVVAISKGGYKYDAVSLEARFTISKDNTKNTVYLQMNSLKPEDTAVYYCAGTRAYGSSRLRLADTYEYWGQGTQVTVSS : 0.0144

Data provenance: patent EP4582447A1
